Target: specific ANP receptor sites on BASM or BAE cells (Bos taurus, UniProt P10730)
Construct: specific receptor sites on BASM or BAE cells; endogenous in cells; host or cells: cultured BASM and BAE cells
Sequence (P10730 42-537): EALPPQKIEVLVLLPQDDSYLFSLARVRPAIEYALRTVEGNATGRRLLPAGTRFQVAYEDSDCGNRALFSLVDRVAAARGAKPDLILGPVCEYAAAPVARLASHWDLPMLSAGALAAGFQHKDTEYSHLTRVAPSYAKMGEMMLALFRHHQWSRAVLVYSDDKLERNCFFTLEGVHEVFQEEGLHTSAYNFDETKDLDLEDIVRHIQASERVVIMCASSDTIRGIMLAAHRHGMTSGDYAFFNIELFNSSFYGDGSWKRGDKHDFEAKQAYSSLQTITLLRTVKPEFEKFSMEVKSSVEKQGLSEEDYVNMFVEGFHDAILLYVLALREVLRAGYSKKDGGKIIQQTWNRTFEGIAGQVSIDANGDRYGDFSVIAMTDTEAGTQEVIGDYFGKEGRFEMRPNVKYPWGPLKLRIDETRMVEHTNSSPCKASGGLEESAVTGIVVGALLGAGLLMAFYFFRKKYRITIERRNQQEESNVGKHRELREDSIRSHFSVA
Test: Competitive displacement receptor binding of (125I)-rANP(126-150) on cultured cells
Set-up: species or system bovine
Settings: concentration of unlabeled peptide displacing 50% of maximal binding of 0.5 nM (125I)-rANP(126-150); BASM or BAE cells
Description: Analogous "competitive displacement" receptor binding assays are considered commonplace in the art for examining specific ligand-receptor interactions. Assuming these ANP analogs act at one or more ANP receptor sites, then increased receptor affinity should reflect increased biological potency.
Where a SMILES comes first, the peptide text is derived from it. [ ]: non-standard residue; d: D form. The star is where a group is joined. Acetyl(2-naphthyl) = O=C(Cc1ccc2ccccc2c1)*

- compound: "CC[C@H](C)[C@H](NC(=O)[C@H](CCCNC(=N)N)NC(=O)[C@H](CC(=O)O)NC(=O)[C@@H](NC(=O)[C@H](CCCNC(=N)N)NC(=O)CNC(=O)CNC(=O)[C@@H](Cc1ccccc1)NC(=O)[C@H](C)N)[C@@H](C)CC)C(=O)NCC(=O)N[C@@H](C)C(N)=O [AP151, A--F^ --G--G--R--I--D--R--I--G--A--NH2] (H-A[dF]GGRIDRIGA-NH2)"
  target of assay: "specific ANP receptor sites on BASM or BAE cells (Bos taurus, UniProt P10730)"
  Ki(app): "39.6 nM"
- compound: "CC[C@H](C)[C@H](NC(=O)[C@H](CCCNC(=N)N)NC(=O)[C@H](CC(=O)O)NC(=O)[C@@H](NC(=O)[C@H](CC(C)C)NC(=O)CNC(=O)CNC(=O)Cc1ccc2ccccc2c1)[C@@H](C)CC)C(N)=O [AP512, (2-NA)--G--G--L--I--D--R--I--NH2] ({Acetyl(2-naphthyl)}-GGLIDRI-NH2)"
  target of assay: "specific ANP receptor sites on BASM or BAE cells (Bos taurus, UniProt P10730)"
  Ki(app): "> 160 nM"
